Numbers sourced from the OPERA property sets (Mansouri et al. 2018).

assay.metric: melting point (°C)
Numeric answer only, unit °C assumed.

molecule	melting point / °C
O=C(c1ccccc1)c1ccc2n1CCC2C(=O)O (configuration not stated)	160
Cn1ccc(=O)[nH]c1=O	237
CC(C)C(O)(c1ccc(OC(F)(F)F)cc1)c1cncnc1 (configuration not stated)	95
Cc1cc(O)ccc1N=Nc1ccccc1	109
Cc1ccc2sc(C)nc2c1	38
C=Cc1c(Cl)cccc1Cl	89

Kindly consider the entry below.
Request: Using the record for `CC(=O)N(c1onc(C)c1C)S(=O)(=O)c1ccc(N)cc1` , report its melting point.
Response: 194

====

Rule: log10 biodegradation half-life (days) below 1 gives met, anything at or above gives not met.

Below, 6 molecules whose answers are already recorded.
molecule	class
Cc1cc(C)c(C)cc1C	met
CCCCCCCCCCCCCCCCCCCCC	not met
Cc1cccc2c1cc(C)c1cccc(C)c12	not met
CCCCCCCCCCCCCCCCC	not met
c1ccc2c(c1)-c1cccc3cccc-2c13	not met
CCCCCCCCCCCCCCCCCCCCCCCCCC	not met

Request: Quick check: does CCC(C)C(C)CC (stereo not drawn) have log10 biodegradation half-life (days) under 1?
Response: met

Request: Quick check: does `c1ccc2c(c1)ccc1ccccc12` have log10 biodegradation half-life (days) under 1?
Response: not met

Request: Quick check: does `c1ccc2c(c1)cc1ccc3cc4ccccc4c4ccc2c1c34` have log10 biodegradation half-life (days) under 1?
Response: not met

Request: Quick check: does `CCCCCCCCCCCCCCCCCCCCCCCC` have log10 biodegradation half-life (days) under 1?
Response: not met

Request: Quick check: does `CC1CCCC1` have log10 biodegradation half-life (days) under 1?
Response: met

Request: Quick check: does `Cc1cc(C)c(C)c(C)c1` have log10 biodegradation half-life (days) under 1?
Response: met

Request: Quick check: does CCC(C)CCC(C)C (stereo not drawn) have log10 biodegradation half-life (days) under 1?
Response: met

Request: Quick check: does `CCCC(CC)CC` have log10 biodegradation half-life (days) under 1?
Response: met

====

assay.metric: melting point (°C)
Numeric answer only, unit °C assumed.

Examples from the recorded data:
compound	melting point (°C)
COc1ccc(C(=O)c2cccc(C)c2)cc1C	62.3
BrCC(Br)c1ccccc1 (centres undefined)	75
O=C(c1ccccc1)c1cccc(Br)c1	81
CC(=O)O[C@]1(C(C)=O)CC[C@H]2[C@@H]3C=C(C)C4=CC(=O)CC[C@]4(C)[C@H]3CC[C@@]21C	214
NS(=O)(=O)c1ccc(CCCCCO)cc1	86
CCCCCC#CCO	-18
Clc1nc(Cl)c(Cl)c(Cl)n1	69
COc1ccc(CC#N)cc1OC	62.8
CN1CC[C@]23c4c5ccc(OCCN6CCOCC6)c4O[C@H]2[C@@H](O)C=C[C@H]3[C@H]1C5	91
O=[N+]([O-])c1ccc2[nH]ccc2c1	141

Request: Using the record for `Cc1cc(O)c(Cl)c(C)c1Cl` , report its melting point.
Response: 83

Request: Using the record for `CCCOc1ccc([N+](=O)[O-])cc1NC(C)=O` , report its melting point.
Response: 102

Request: Using the record for `CCC1CCCC1` , report its melting point.
Response: -138

Request: Using the record for `O=C1NCCCN1` , report its melting point.
Response: 265

====

Rule: melting point below 60 °C gives MET, anything at or above gives NOT MET.

compound	class
Cn1nc2ccc(NC(=O)c3ccccc3)cc2n1	NOT MET
Oc1c(Cl)cccc1-c1ccccc1	MET
CC(CO)(CO)[N+](=O)[O-]	NOT MET

Request: Quick check: does `CC(CCC(=O)O)(c1ccc(O)cc1)c1ccc(O)cc1` have melting point under 60 °C?
Response: NOT MET

Request: Quick check: does `Cc1cccc(C)c1Cl` have melting point under 60 °C?
Response: MET

Request: Quick check: does `CN1CCC(N(Cc2cccs2)c2ccccc2)CC1` have melting point under 60 °C?
Response: NOT MET

====

The entries below come with measured melting point values attached.
Numeric answer only, unit °C assumed.

molecule	melting point / °C
CN(C)c1ccc(C=O)cc1	74.5
O=C(O)CCCCCCCCCCCCC1C=CCC1 (stereo not given)	68.5
Nc1ccccc1F	-34.6
O=[N+]([O-])c1c(Cl)cccc1-c1c[nH]cc1Cl	124
CCN(C(=O)Oc1cccc(NC(=O)OC(C)C)c1)c1ccccc1	110
O=C(O)c1ccc(C(=O)O)c2c(C(=O)O)ccc(C(=O)O)c12	320
C	-182
C1CCCCCCC1	14.8

Kindly consider the entry below.
Request: Using the record for `O=C(O)c1cc(I)ccc1O` , report its melting point.
Response: 190

====

The entries below come with measured melting point values attached.
Numeric answer only, unit °C assumed.

Request: Using the record for `CCc1ccncc1` , report its melting point.
Response: -90.5

Request: Using the record for `CSCc1ccccc1` , report its melting point.
Response: -30

Request: Using the record for `CC(=O)CC(=O)Nc1ccccc1Cl` , report its melting point.
Response: 105

Request: Using the record for `c1ccc(OCCOc2ccccc2)cc1` , report its melting point.
Response: 98

Request: Using the record for `O[C@@H]1CO[C@H]2[C@@H]1OC[C@@H]2O` , report its melting point.
Response: 75.2

Request: Using the record for `Cc1cc(O)c(Cl)cc1Cl` , report its melting point.
Response: 73

Request: Using the record for `Cc1cc(Cl)nc2ccccc12` , report its melting point.
Response: 59

Request: Using the record for `OC1CCCCCCCCC1` , report its melting point.
Response: 40.5

Request: Using the record for `CNC(=S)NCO` , report its melting point.
Response: 89

Request: Using the record for `C=CCC1(c2ccccc2)C(=O)NC(=O)NC1=O` , report its melting point.
Response: 156

Request: Using the record for `c1ccc(C2=N[C@H](c3ccccc3)[C@@H](c3ccccc3)N2)cc1` , report its melting point.
Response: 134

Request: Using the record for `N#CCc1ccccc1Br` , report its melting point.
Response: 1

Request: Using the record for `CC(=O)Oc1ccc(C2(c3ccc(OC(C)=O)cc3)Oc3ccccc3NC2=O)cc1` , report its melting point.
Response: 190

====

Rule: log10 vapour pressure (mmHg) below -5 gives Fulfilled, anything at or above gives Not fulfilled.

Below, 4 molecules whose answers are already recorded.
molecule	class
CC(CO)CO	Not fulfilled
CCOP(=S)(OCC)Oc1ccc(=O)n(-c2ccccc2)n1	Fulfilled
O=C1OC(=O)c2ccccc21	Not fulfilled
O=[N+]([O-])c1ccc(N=Nc2ccccc2)cc1	Fulfilled

Request: Quick check: does `Nc1c(Cl)c(Cl)nc(C(=O)O)c1Cl` have log10 vapour pressure (mmHg) under -5?
Response: Fulfilled

Request: Quick check: does `CCSC(=O)COc1ccc(Cl)cc1C` have log10 vapour pressure (mmHg) under -5?
Response: Not fulfilled

Request: Quick check: does `CCc1ccc(C)cc1C` have log10 vapour pressure (mmHg) under -5?
Response: Not fulfilled

Request: Quick check: does `CCOC(=O)OCC` have log10 vapour pressure (mmHg) under -5?
Response: Not fulfilled

Request: Quick check: does `CCCCCCCCCCCCCCCCCCCCCCCC` have log10 vapour pressure (mmHg) under -5?
Response: Fulfilled

====

Rule: melting point below 40 °C gives label 1, anything at or above gives label 0.

compound	class
CC(=O)N[C@@H](CS)C(=O)O	label 0
O=Cc1c(Cl)cccc1Cl	label 0

Request: Quick check: does `CC(=O)c1ccc(Cl)c(Cl)c1` have melting point under 40 °C?
Response: label 0

Request: Quick check: does `Nc1ccnc2ccccc12` have melting point under 40 °C?
Response: label 0

Request: Quick check: does `C=C(C)[C@H]1Cc2c(cc(O)c3c2O[C@@H]2COc4cc(OC)c(OC)cc4[C@@H]2C3=O)O1` have melting point under 40 °C?
Response: label 0

Request: Quick check: does `O=C(O)[C@@H](CO)c1ccccc1` have melting point under 40 °C?
Response: label 0

====

conditions: fish
assay.metric: log10 BCF
Could you respond with only the numeric value?

Examples from the recorded data:
molecule	log10 BCF
CC(N)c1ccccc1 (configuration not stated)	0.82
Cc1cc(C)cc(C)c1	2.27
Brc1cc(Br)c(-c2ccccc2)c(Br)c1	3.87
C1COCCO1	-0.3
CCOC(=O)CC(SP(=S)(OC)OC)C(=O)OCC (configuration not stated)	1.52
COc1cc(Cl)c(Cl)c(Cl)c1Cl	3.67

Request: Using the record for `Cc1ccc(N)c(S(=O)(=O)O)c1` , report its log10 BCF.
Response: 0.6

Request: Using the record for `Clc1cc(Cl)cc(Cl)c1` , report its log10 BCF.
Response: 2.97

Request: Using the record for CC(CCl)OP(=O)(OC(C)CCl)OC(C)CCl (configuration not stated) , report its log10 BCF.
Response: 0.9

Request: Using the record for `CC(C)c1ccccc1` , report its log10 BCF.
Response: 1.55

Request: Using the record for `Clc1cc(Cl)cc(-c2ccccc2)c1` , report its log10 BCF.
Response: 3.77

Request: Using the record for `CCc1ccc2c(c1)C(=O)c1ccccc1C2=O` , report its log10 BCF.
Response: 0.98

Request: Using the record for `Clc1cc2c(cc1Cl)Oc1c(Cl)c(Cl)c(Cl)c(Cl)c1O2` , report its log10 BCF.
Response: 4
